# Test system: MCF7
# test name: NCI tumour cell line growth inhibition, 48 h
Active and inactive are the calls of the source. Cut-off read from the data, not from the text of the source: active = GI50 up to about 1.1 µM and inactive = higher.
Labels: active, inactive

INSERT INTO assay_data (compound, discrete_label) VALUES
  ('CCC(=O)OC1CCn2c1nc1c2C(=O)C(C)=C(N2CC2)C1=O (centres undefined)', 'active'),
  ('Cc1cccc(N2C(=O)C3c4[nH]c5ccccc5c4C4CCC(C(C)(C)C)CC4C3C2=O)c1 (centres undefined)', 'inactive'),
  ('CC(OCc1ccccc1)C(NC(=O)C1CSSCC(NC(=O)C(Cc2ccccc2)NC(=O)OCc2ccccc2)C(=O)NC(Cc2ccccc2)C(=O)NC(Cc2cn(C=O)c3ccccc23)C(=O)NC(CCCCNC(=O)OCc2ccccc2)C(=O)NC(C(C)OCc2ccccc2)C(=O)N1)C(N)=O (centres undefined)', 'inactive'),
  ('N#CCCN(CCC#N)c1ccc(/C=N\c2ccc(F)cc2)cc1', 'inactive'),
  ('COc1ccc2nc3ccccc3c(NCCN(C)CCCl)c2c1', 'active'),
  ('CC(=O)OCC1OC(n2cnc(C(N)=S)c2N)C(OC(C)=O)C1OC(C)=O (centres undefined)', 'inactive'),
  ('C[N+](C)(C)CC(=O)N/N=C/c1ccncc1', 'inactive'),
  ('O=S(=O)(/N=S(/Nc1ccccc1)C(Cl)Cl)c1ccccc1 (centres undefined)', 'inactive'),
  ('COc1cc(C(=O)NC(CCN)(c2ccccc2)c2ccccc2)cc(OC)c1OC', 'inactive');

// provenance: ChEMBL document CHEMBL1201862
